Reference source for all entries: PubChem BioAssay (NCI)

# procedure_text: NCI Yeast Anticancer Drug Screen. Data for the wt2 strain (AID 169);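 also: 0% = growth of vehicle-treated yeast cultures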
# stated_conditions: S. cerevisiae wt2 strain growth inhibition; at 1.2 µM; hits give high values
About 79,000 compounds went through this panel and 15% of them were active in at least one assay; those are over-represented in the sample as a whole.
outcome_measure: growth inhibition (%)
# unit: % | format: bare number

Check out these entries, answers already filled in.
COc1cc(OC)c(CSCC(NC(=O)OCC2c3ccccc3-c3ccccc32)C(=O)O)c(OC)c1 (stereo not drawn)
-1
CCCCCCNCCCNc1c2cc(OC)ccc2nc2cccc([N+](=O)[O-])c12
0
O=[N+]([O-])[O][Sn]([O][Sn]([O][N+](=O)[O-])([c]1ccccc1)[c]1ccccc1)([c]1ccccc1)[c]1ccccc1
-47
O=C(O)c1ccc2cc(Cl)c3ccccc3c2c1
-3

Lab note: "OC1(C#CI)CCCCC1" gave growth inhibition of -7

Lab note: c1ccc2c(c1)N=C1CCCC3CCCC123 (stereo not drawn) gave growth inhibition of 1

---

# procedure_text: NCI Yeast Anticancer Drug Screen. Data for the mlh1 strain (AID 171);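 also: 0% = growth of vehicle-treated control cultures of the same strain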
# stated_conditions: S. cerevisiae mlh1 strain growth inhibition; at 100.0 µM; hits give high values
The panel holds about 79,000 compounds, 15% with a hit somewhere; the sample as a whole holds those more often.
Below, each entry is listed with its recorded growth inhibition.
# unit: % | format: bare number

S=C1N(c2ccc(Cl)cc2)C2=C(N=Nc3ccccc3)C(=Nc3ccccc3S2)N1c1ccccn1
99
O=C1/C(=C/c2ccc(Cl)c(Cl)c2)CNC/C1=C\c1ccc(Cl)c(Cl)c1
94
COC(=O)c1ccccc1N=NNc1cccc(SC)c1
88
O=C(NC(N1CCN(c2cc3c(cc2F)c(=O)c(C(=O)O)cn3C2CC2)CC1)(C(F)(F)F)C(F)(F)F)c1ccccc1
39
C/C1=C/C2OC(=O)C3(C)C2C(CC2(C)OC1=CC2=O)OC3(O)C(C)C (stereo unspecified)
90

Lab note: "O=C1c2cccc3cccc(c23)C(=O)N1O" gave growth inhibition of 90

Lab note: "CC(C)OP(=O)(OC(C)C)/C(Cl)=N/Nc1ccc([N+](=O)[O-])cc1" gave growth inhibition of 94

Lab note: "Cc1ccc(S(=O)(=O)NC(=O)C2C(=O)CC3(CCCCC3)CC2=O)cc1" gave growth inhibition of 88

Lab note: "CC(C)OP(=O)(OC(C)C)C(=NCCO)NNc1ccc([N+](=O)[O-])cc1" gave growth inhibition of 87

Lab note: "CCCCCCCC/C=C\CCCCCCCCN" gave growth inhibition of 97

---

Below, each entry is listed with its recorded growth inhibition.
# procedure_text: NCI Yeast Anticancer Drug Screen. Data for the mec2-1 strain (AID 157)
# stated_conditions: S. cerevisiae mec2-1 strain, at 5.0 µM (retest, dose inferred, filed as 0.5), hits give high values
This is part of a sample that, as a whole, favours compounds with a hit. Of some 79,000 tested, about 15% had one in any assay.
# unit: % | format: bare number

Cc1cccc2c1C1c3c(C)cccc3C(CC(=O)O)CC1CC2 (configuration not stated)
8

Lab note: "Cc1cc2nc3ccccc3n2c2ccccc12" gave growth inhibition of -11

Lab note: NC(=S)N/N=C1\c2ccccc2CCC1CCC1(O)CCc2ccccc2C1=O (configuration not stated) gave growth inhibition of -1

Lab note: O=C(O)c1ccccc1C(=O)OC1CCc2ccccc2C1 (configuration not stated) gave growth inhibition of -20

---

Below, each entry is listed with its recorded growth inhibition.
# procedure_text: NCI Yeast Anticancer Drug Screen. Data for the cln2 rad14 strain (AID 165);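 also: 0% = growth equal to vehicle treated cultures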
# stated_conditions: S. cerevisiae cln2 rad14 strain, at 50.0 µM, hits give high values
About 79,000 compounds went through this panel and 15% of them were active in at least one assay; those are over-represented in the sample as a whole. Active and inactive are the calls of the source. No stated cut-off is given here; in the data, active means growth inhibition above about 70%; inactive means the rest.

Check out these entries, answers already filled in.
N#Cc1nc(Nc2ccc(Cl)cc2)sc1N
84.6% (active)
Cc1c2cc[n+](CCO)cc2c(C)c2c1[nH]c1ccc(O)cc12
7.55% (inactive)

Lab note: "O=C1C[C@H]2[C@H](c3ccc(Br)cc3)[C@H]3C(=O)c4ccccc4NC(=O)[C@@H]3[C@@]2(O)c2ccccc2N1" gave growth inhibition of 97% (active)

Lab note: "O=C1c2cccc3cccc(c23)C(=O)N1CCNCCN1C(=O)c2cccc3cccc(c23)C1=O" gave growth inhibition of 15.9% (inactive)

Lab note: O=CC1(F)CC1(c1ccccc1)c1ccccc1 (stereo unspecified) gave growth inhibition of 23.8% (inactive)

Lab note: Cc1cccc(C)c1NC(=O)CCC(=O)C(C)C(=O)c1ccc(O)cc1 (stereo unspecified) gave growth inhibition of 50% (inactive)

Lab note: "CCC[CH2][Sn]([CH2]CCC)([CH2]CCC)/[C](=C/[Si](C)(C)c1ccccc1)c1ccc2c(c1)OCO2" gave growth inhibition of 91.3% (active)

Lab note: "O=C(Cc1ccccc1)NNc1nc(NNC(=O)c2ccncc2)nc(Nc2ccc([N+](=O)[O-])cc2)n1" gave growth inhibition of 64.3% (inactive)

Lab note: "O=C(/C(=C/c1ccc(O)cc1)c1ccccc1)c1ccccc1" gave growth inhibition of 92.5% (active)

Lab note: "O=C(c1ccccc1)[C@H]1Nc2ccc(Cl)cc2[C@H]2OCCC[C@@H]12" gave growth inhibition of 32.6% (inactive)

Lab note: "CCOP(=O)(OCC)/C(C#N)=C/c1ccc(-c2ccc(F)cc2F)o1" gave growth inhibition of 60.6% (inactive)

Lab note: "CCOP(=O)(OCC)/C(C#N)=C/c1cccc(Oc2ccccc2)c1" gave growth inhibition of 90.5% (active)

Lab note: O=C(O)C1CCCCC1c1c2ccc(=O)cc-2oc2cc(O)ccc12 (stereo unspecified) gave growth inhibition of 86.4% (active)

Lab note: "CC(C)CCC[C@@H](C)[C@H]1CC[C@H]2[C@@H]3CC[C@H]4C[C@H](N)CC[C@]4(C)[C@H]3CC[C@]12C" gave growth inhibition of 19.2% (inactive)

Lab note: "c1ccc2c(c1)ccn2CCc1c[nH]c2ccccc12" gave growth inhibition of 91.7% (active)

Lab note: "O=C(Nc1ccc(Cl)cc1)c1cc2cc(N=Nc3ccccc3Cl)ccc2oc1=O" gave growth inhibition of 82.8% (active)

Lab note: CC(/C=C/c1ccc([N+](=O)[O-])o1)=N/N1CC(CN2CCOCC2)OC1=O (stereo unspecified) gave growth inhibition of 53.5% (inactive)

Lab note: "COc1cc(C(=O)C=O)cc(OC)c1OC" gave growth inhibition of 37.5% (inactive)

Lab note: "Oc1c2c(c(O)c3ccccc13)C1(N=N2)c2ccccc2Oc2ccccc21" gave growth inhibition of 92.2% (active)

Lab note: O=C1SS(=O)c2ccccc21 (stereo unspecified) gave growth inhibition of 5.75% (inactive)

Lab note: "CCOC(=O)/C(=C\c1ccc(F)cc1)C(C)=O" gave growth inhibition of 89% (active)

---

Below, each entry is listed with its recorded growth inhibition.
# procedure_text: NCI Yeast Anticancer Drug Screen. Data for the rad50 strain (AID 155);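 also: 0% = growth of vehicle-only cultures of the same strain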
# stated_conditions: S. cerevisiae rad50 strain growth inhibition; at 1.2 µM; hits give high values
# Method: Growth inhibition of yeast strains with defined genetic alterations is measured as a screen for potential anti-cancer activity. Selected strains with alterations in DNA damage repair or cell cycle control were exposed to compounds and growth inhibition was measured relative to vehicle treated controls. The strain used in this assay is rad50
The panel holds about 79,000 compounds, 15% with a hit somewhere; the sample as a whole holds those more often.
# unit: % | format: bare number

Check out these entries, answers already filled in.
COc1cccc(C(NC2=NCCC=N2)c2cc3c(cc2O)OCO3)c1O (configuration not stated)
-1
CC1CN(/N=C\c2ccc([N+](=O)[O-])o2)C(=O)O1 (configuration not stated)
9

Lab note: CC1CCC(C2=CSC3CCCCC3N2)CC1 (configuration not stated) gave growth inhibition of 16

Lab note: COc1ccc(C(OCC2OC(n3cnc4c(=O)n(Cc5ccccc5[N+](=O)[O-])nnc43)C(O)C2O)(c2ccccc2)c2ccc(OC)cc2)cc1 (configuration not stated) gave growth inhibition of 22

Lab note: "Cn1c(-c2ccc(/C=N\N3CCN(/N=C/c4ccc(-c5c[n+]6ccsc6n5C)cc4)CC3)cc2)c[n+]2ccsc12" gave growth inhibition of 21

---

# procedure_text: NCI Yeast Anticancer Drug Screen. Data for the rad14 strain (AID 159);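 also: 0% = growth of vehicle-treated control cultures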
# stated_conditions: S. cerevisiae rad14 strain growth inhibition; at 33.0 µM; hits give high values
The panel holds about 79,000 compounds, 15% with a hit somewhere; the sample as a whole holds those more often.
outcome_measure: growth inhibition (%)
# unit: % | format: bare number

Check out these entries, answers already filled in.
CC(C)S(=O)(=O)/C=C\S(=O)(=O)C(C)C
55
Cc1ccc(S(=O)(=O)Nc2cccc3cccnc23)cc1
72
Nc1cc2c(cc1N)-c1ccccc1C2=O
26

Lab note: "O=C(NC(N1CCN(c2cc3c(cc2F)c(=O)c(C(=O)O)cn3C2CC2)CC1)(C(F)(F)F)C(F)(F)F)c1ccccc1" gave growth inhibition of 19

Lab note: "CC1=NN(C(=O)c2ccccc2O)C(=O)/C1=C/c1ccco1" gave growth inhibition of 89

Lab note: "CC(C)OC(=O)NNc1cc(Cl)ccc1Cl" gave growth inhibition of 48
